TARGET OR SYSTEM: β-N-acetylhexosaminidase from Talaromyces flavus (Talaromyces flavus, UniProt G5DAA0)
Construct: recombinant, secreted from Pichia pastoris, purified by cation exchange chromatography; GH20
Sequence (G5DAA0 18-628): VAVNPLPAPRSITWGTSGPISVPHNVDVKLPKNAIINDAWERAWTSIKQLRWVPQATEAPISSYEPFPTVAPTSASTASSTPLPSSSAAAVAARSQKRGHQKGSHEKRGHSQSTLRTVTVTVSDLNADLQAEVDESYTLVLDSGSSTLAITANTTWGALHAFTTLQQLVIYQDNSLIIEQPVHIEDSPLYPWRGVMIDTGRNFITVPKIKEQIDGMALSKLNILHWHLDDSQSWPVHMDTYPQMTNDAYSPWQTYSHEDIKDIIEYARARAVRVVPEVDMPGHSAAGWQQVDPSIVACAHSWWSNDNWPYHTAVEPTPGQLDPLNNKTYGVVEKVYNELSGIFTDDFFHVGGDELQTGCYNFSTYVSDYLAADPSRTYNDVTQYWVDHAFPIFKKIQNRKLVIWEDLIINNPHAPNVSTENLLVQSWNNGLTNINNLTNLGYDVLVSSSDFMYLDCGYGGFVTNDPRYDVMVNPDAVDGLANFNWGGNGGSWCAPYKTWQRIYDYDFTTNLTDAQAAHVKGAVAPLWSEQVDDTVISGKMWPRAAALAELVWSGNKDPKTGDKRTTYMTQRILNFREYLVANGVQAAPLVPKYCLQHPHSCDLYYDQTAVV
PROTOCOL: pNP-β-GlcNAc hydrolysis, kinetic assay at […] nm
Format: biochemical
CONDITION SET: read-out: KI [μM] / C-6-azido-NAG-thiazoline (2)
MEASUREMENT LABEL: Ki (µM)

>>> reported("CC1=N[C@@H]2[C@@H](O)[C@H](O)[C@@H](CN=[N+]=[N-])O[C@@H]2S1")
212

* * *

TARGET OR SYSTEM: human O-GlcNAcase (Homo sapiens)
Construct: gene OGA; gene from D. Vocadlo; GH84
Sequence (O60502 whole entry): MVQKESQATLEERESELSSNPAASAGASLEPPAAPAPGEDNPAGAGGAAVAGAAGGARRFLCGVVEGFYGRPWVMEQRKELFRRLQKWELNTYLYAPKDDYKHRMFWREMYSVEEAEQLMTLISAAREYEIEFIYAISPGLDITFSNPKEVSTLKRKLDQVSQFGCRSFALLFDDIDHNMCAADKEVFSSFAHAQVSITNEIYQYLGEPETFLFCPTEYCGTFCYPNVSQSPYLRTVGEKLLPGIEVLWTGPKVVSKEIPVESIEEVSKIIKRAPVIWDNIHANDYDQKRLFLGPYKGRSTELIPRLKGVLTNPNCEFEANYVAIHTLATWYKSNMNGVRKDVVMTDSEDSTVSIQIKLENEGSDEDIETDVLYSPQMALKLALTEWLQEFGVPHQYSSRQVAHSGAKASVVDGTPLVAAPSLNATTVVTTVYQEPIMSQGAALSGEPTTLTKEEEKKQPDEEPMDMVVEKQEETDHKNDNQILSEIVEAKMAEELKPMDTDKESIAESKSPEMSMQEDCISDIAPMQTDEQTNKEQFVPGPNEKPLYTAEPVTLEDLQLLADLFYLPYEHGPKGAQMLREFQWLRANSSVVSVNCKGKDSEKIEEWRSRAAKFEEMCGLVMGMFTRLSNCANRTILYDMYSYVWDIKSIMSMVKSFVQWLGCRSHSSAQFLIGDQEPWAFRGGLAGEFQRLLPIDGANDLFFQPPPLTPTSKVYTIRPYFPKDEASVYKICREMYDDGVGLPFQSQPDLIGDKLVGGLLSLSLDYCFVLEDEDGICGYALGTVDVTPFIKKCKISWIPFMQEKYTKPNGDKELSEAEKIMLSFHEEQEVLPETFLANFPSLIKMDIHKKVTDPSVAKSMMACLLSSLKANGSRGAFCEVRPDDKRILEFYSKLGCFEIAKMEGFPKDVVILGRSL
PROTOCOL: pNP-β-GlcNAc hydrolysis, kinetic assay at […] nm
Type: biochemical
CONDITION SET: read-out: KI [μM] / C-6-azido-NAG-thiazoline (2)
MEASUREMENT LABEL: Ki

>>> reported("CC1=N[C@@H]2[C@@H](O)[C@H](O)[C@@H](CN=[N+]=[N-])O[C@@H]2S1 [compound 2]")
"19.3 µM"
